# assay.system: biotinylated human Gal-3 (hGal-3) (Homo sapiens, UniProt P17931)
# Sequence (P17931 whole entry): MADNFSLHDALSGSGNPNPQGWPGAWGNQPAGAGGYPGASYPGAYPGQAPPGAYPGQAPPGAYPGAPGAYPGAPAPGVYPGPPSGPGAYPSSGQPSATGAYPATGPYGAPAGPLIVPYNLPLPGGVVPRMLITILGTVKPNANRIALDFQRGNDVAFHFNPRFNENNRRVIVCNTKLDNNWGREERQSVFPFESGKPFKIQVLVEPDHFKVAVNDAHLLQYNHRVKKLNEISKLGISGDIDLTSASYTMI
# protocol.summary: Competitive binding assay: biotinylated hGal-3 binding to microplate-adsorbed asialofetuin (ASF), spectrophotometric
# measurement.conditions: Table 11; hGal-3; read-out: IC50 (Gal-3 inhibition)
Rule: IC50 below 50 nM gives true. Equal to or above 50 nM gives false.

molecule | label.value
CCN(C)C(=O)C(S[C@@H]1O[C@H](CO)[C@H](O)[C@H](n2cc(-c3cc(F)cc(Cl)c3)nn2)[C@H]1O)C1(O)CCOCC1 (stereo partly drawn) [Example 13.41.203.] | false
CCN(C)C(=O)C(S[C@@H]1O[C@H](CO)[C@H](O)[C@H](n2cc(-c3cc(F)c(Br)c(F)c3)nn2)[C@H]1O)C1(O)CCOCC1 (stereo partly drawn) [Example 18.41.203.] | true
CCN(C)C(=O)C(S[C@@H]1O[C@H](CO)[C@H](O)[C@H](n2cc(-c3cc(F)c(C)c(F)c3)nn2)[C@H]1O)C1(O)CCOCC1 (stereo partly drawn) [Example 3.41.203.] | true
CCN(C)C(=O)C(S[C@@H]1O[C@H](CO)[C@H](O)[C@H](n2cc(-c3ccc(Br)c(F)c3)nn2)[C@H]1O)C1(O)CCOCC1 (stereo partly drawn) [Example 12.41.203.] | true
CCN(C)C(=O)C(S[C@@H]1O[C@H](CO)[C@H](O)[C@H](n2cc(-c3cc(F)c(Cl)c(Cl)c3)nn2)[C@H]1O)C1(O)CCOCC1 (stereo partly drawn) [Example 17.41.203.] | true
CCN(C)C(=O)C(S[C@@H]1O[C@H](CO)[C@H](O)[C@H](n2cc(-c3cc(C)cc(C#N)c3)nn2)[C@H]1O)C1(O)CCOCC1 (stereo partly drawn) [Example 19.41.203.] | false

Request: Hello, is IC50 of the following molecule strictly smaller than 50 nM? CCN(C)C(=O)C(S[C@@H]1O[C@H](CO)[C@H](O)[C@H](n2cc(-c3cc(F)cc(F)c3)nn2)[C@H]1O)C1(O)CCOCC1 (stereo partly drawn) [Example 10.41.203.]
Response: false

Request: Then what about the molecule CCN(C)C(=O)C(S[C@@H]1O[C@H](CO)[C@H](O)[C@H](n2cc(-c3cccc(F)c3)nn2)[C@H]1O)C1(O)CCOCC1 (stereo partly drawn) [Example 1.41.203.] ?
Response: false
